target: PIK3CG (human); test: Cell-Based Assay; conditions: u937
measured_metric: IC50 (nM)

Here is how some compounds turned out for IC50.
| molecule_smiles | unit_descriptor | IC50 |
| --- | --- | --- |
| Cc1nc(N)nc(N2CCC[C@H]2c2nc3cccc(F)c3c(=O)n2-c2ccccc2)c1C#N | nM | 115 |
| Cc1nc(N)nc(N2C[C@@H](O)C[C@H]2c2nc3ccc(F)c(C4CC4)c3c(=O)n2-c2ccccc2)c1C#N | nM | 35 |
| Cc1nc(N)nc(N2C[C@@H](O)C[C@H]2c2nc3ccc(F)c(C)c3c(=O)n2-c2ccccc2)c1C#N | nM | 18 |

(P) N#Cc1c(C(F)F)nc(N)nc1N1C[C@@H](O)C[C@H]1c1nc2cccc(C(F)(F)F)c2c(=O)n1-c1ccccc1
(Q) CO[C@H]1C[C@@H](c2nc3cccc(Cl)c3c(=O)n2-c2ccccc2)N(c2nc(N)nn3ccnc23)C1
(R) Cc1nc(N)nc(N2CCC[C@H]2c2nc3ccc(F)c(S(C)(=O)=O)c3c(=O)n2-c2ccccc2)c1C#N
Reorder: IC50, max to min. Write the labels, ordered according to the request.
R, Q, P
(R: 1580 nM, Q: 793 nM, P: 187 nM)

----------
biological target: PIK3CD (Human); test: Enzyme Assay
pIC50: −log10 of the molar value.
measured_metric: pIC50

Here is how some molecules turned out for pIC50.
| molecule_smiles | target_or_system | value_measured |
| --- | --- | --- |
| Cc1nc(N)nc(N2CCC[C@H]2c2nc3cccc(C(F)(F)F)c3c(=O)n2-c2cccnc2)c1C#N | PIK3CD (Human) | 7.62 |
| Cc1nc(N)nc(N2CCC[C@H]2c2nc3cccc(Cl)c3c(=O)n2C2CC2)c1C#N | PIK3CD (Human) | 7.51 |
| CO[C@H]1C[C@@H](c2nc3cccc(Cl)c3c(=O)n2C2CC2)N(c2nc(N)nc(C)c2C#N)C1 | PIK3CD (Human) | 6.98 |
| O=c1c2c(Cl)cccc2nc([C@@H]2CCCN2c2ncnc3[nH]cnc23)n1[C@@H]1CCN(S(=O)(=O)C2CC2)C1 | PIK3CD (Human) | 6.29 |
| Cc1nc(N)nc(N2C[C@@H](O)C[C@H]2c2nc3ccc(F)c(F)c3c(=O)n2-c2ccccc2)c1C#N | PIK3CD (Human) | 7.37 |
| CS(=O)(=O)N1CC[C@H](n2c([C@@H]3CCCN3c3ncnc4[nH]cnc34)nc3cccc(Cl)c3c2=O)C1 | PIK3CD (Human) | 6.44 |
| N#Cc1c(N)ncnc1N1CCC[C@H]1c1nc2ccc(F)c(C(F)(F)F)c2c(=O)n1-c1ccccc1 | PIK3CD (Human) | 7.89 |
| Nc1nc(N2C[C@@H](F)C[C@H]2c2nc3cccc(C(F)(F)F)c3c(=O)n2-c2cccc(F)c2)c2nc[nH]c2n1 | PIK3CD (Human) | 7.59 |

(A) Cc1nc(N)nc(N2CCC[C@H]2c2nc3cc(F)cc(F)c3c(=O)n2-c2ccccc2)c1C#N
(B) O=c1c2c(Cl)cccc2nc([C@@H]2CCCN2c2ncnc3[nH]cnc23)n1-c1cccnc1
Smaller pIC50 value? Options are A and B Answer by stating the label of the chosen item.
A
(A: 7.14, B: 7.70)

Hey, just so you know, these numbers are from the Kinase Knowledgebase extract (Sharma et al. 2016).
